Origin of the recorded values: patent US20140178935A1

# EXPERIMENTAL TARGET: recombinant human HGF (R&D Systems, Catalog No. 294-HGN-025) (human, UniProt P14210 32-728)
# Sequence (P14210 32-728 limits assumed): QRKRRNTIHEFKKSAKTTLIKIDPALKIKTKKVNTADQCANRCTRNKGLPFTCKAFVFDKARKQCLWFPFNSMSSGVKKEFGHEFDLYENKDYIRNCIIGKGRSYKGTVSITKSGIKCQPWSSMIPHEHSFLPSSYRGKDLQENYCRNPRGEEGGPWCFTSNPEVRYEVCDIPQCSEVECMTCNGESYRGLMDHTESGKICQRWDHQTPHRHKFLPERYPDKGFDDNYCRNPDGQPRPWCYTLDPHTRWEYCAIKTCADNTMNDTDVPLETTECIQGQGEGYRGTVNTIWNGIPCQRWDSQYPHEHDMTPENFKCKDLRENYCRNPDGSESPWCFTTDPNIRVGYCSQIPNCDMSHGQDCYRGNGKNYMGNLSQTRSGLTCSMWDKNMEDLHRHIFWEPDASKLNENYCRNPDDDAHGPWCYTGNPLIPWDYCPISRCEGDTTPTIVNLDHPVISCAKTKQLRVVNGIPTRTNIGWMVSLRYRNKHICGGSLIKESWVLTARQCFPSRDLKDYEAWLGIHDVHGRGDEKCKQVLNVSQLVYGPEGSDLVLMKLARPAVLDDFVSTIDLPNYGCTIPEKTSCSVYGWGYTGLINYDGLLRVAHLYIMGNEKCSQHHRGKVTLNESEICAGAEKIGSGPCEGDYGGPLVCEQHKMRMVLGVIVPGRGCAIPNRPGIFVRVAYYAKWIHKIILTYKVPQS
# PROTOCOL SUMMARY: cell-based or functional assay
MEASURE: IC50, neutralization of HGF stimulated BrdU incorporation in 4 MBr-5 cells (nM)

HE2B8-1 (LR2B8HC + IgG1 constant region G1m(3) allotype allele 1, plus LR2B8LC + Kappa constant region Km(3) allotype allele 1) (antibody, V domains shown, Human Engineered 2B8 variant, human IgG1 kappa, made in HEK293E cells) VH: QVQLVQPGAEVVKPGTSVKLSCKASGYTFTTYWMHWVNQAPGQGLEWIGEINPTNGHTNYNEKFKGKATLTVDKSTSTAYMELSSLRSEDTAVYYCARNYVGSIFDYWGQGTLLTVSS VL: DIVMTQSPDSMAMSVGERVTLNCKASENVVSYVSWYQQKPGQSPKLLIYGASNRNTGVPDRFSGSGSATDFTLTISSVQAEDVADYHCGQSYNYPYTFGQGTKLEIKR | 0.47
